These entries and their values trace back to patent US20120129778A1.

Molecular target: T1, recombinant human TGF-β RII/Fc chimera protein (R&D systems, cat no. 341-BR) (human, UniProt P37173 23-166)
T1 construct: extracellular domain; Bought protein, expressed in the mouse myeloma line NS0; also called hTGFb-RII/Fc; hTFGβ-RII-Fc; not shown: Fc region of human IgG1
T1 sequence (P37173 23-166, change not shown): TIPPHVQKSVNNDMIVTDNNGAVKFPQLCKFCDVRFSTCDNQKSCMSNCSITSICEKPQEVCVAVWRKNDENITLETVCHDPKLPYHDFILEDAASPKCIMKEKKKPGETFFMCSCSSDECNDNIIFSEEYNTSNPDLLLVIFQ
Assay: ELISA, plate coated with human TGF-β RII/Fc, dAb supernatant, anti-FLAG detection
Reported Property: binding result

DOM23h-440 (other, Naive dAb) EVQLLESGGGLVQPGGSLRLSCAASGFTFTDDRMWWVRQAPGKGLEWVSAIDPQGQHTYYADSVKGRFTISRDNSKNTLYLQMNSLRAEDTAVYYCAKELLSFDYWGQGTLVTVSS = binds
DOM23h-435 (other, Naive dAb) EVQLLESGGGLVQPGGSLRLTCAASGFTFTDDRMWWVRQAPGKGLEWVSAIDPQGQHTYYADSVKGRFTISRDNSKNTLYLQMNSLRAEDTAVYYCAKHNSSFDYWGQGTLVTVSS = binds
DOM23h-436 (other, Naive dAb) EVQLLESGGGLVQPGGSLRLSCAASGFTFSDYKMGWVRQAPGKGLEWVSSIWPNGGLTYYADSVKGRFTISRDNSKNTLYLQMNSLRAEDTAVYYCAKDHMGFDYWGQGTLVTVSS = binds
